biological target: human FPRL1 (Homo sapiens); test: Measurement test of agonist activity on human FPRL1 (test of calcium mobilization in cell, HEK293 with human FPRL1 and Gα15 expression vectors); settings: calcium mobilization in HEK293 cells with human FPRL1 and Gα15 expression vectors
Sequence (P25090 whole entry): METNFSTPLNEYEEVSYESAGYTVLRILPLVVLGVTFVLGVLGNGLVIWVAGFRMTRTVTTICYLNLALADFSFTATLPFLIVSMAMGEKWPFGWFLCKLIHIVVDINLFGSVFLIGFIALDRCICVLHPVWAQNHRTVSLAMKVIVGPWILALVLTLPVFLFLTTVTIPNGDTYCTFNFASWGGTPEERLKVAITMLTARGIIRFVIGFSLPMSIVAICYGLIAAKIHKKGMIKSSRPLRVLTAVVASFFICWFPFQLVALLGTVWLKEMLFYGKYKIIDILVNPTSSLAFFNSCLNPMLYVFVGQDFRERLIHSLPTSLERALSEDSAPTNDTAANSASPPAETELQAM
Parameter log10(EC50): see the listing below.
Hi team, quick reminder: these entries are log10 of EC50 (nM).

{"MOLECULE": "COc1ccc([C@@H]2CN(C)C(=O)C2NC(=O)Nc2ccc(Cl)cc2)cc1 (mixture of isomers)", "DATA_VALUE": 0.01}
{"MOLECULE": "CSc1ccc([C@@H]2CNC(=O)[C@H]2NC(=O)Nc2ccc(F)cc2)cc1 (single isomer, unassigned)", "DATA_VALUE": 0.24}
{"MOLECULE": "O=C(Nc1ccc(F)cc1)N[C@@H]1C(=O)N(CC2CC2)C[C@H]1c1cc2c(cc1F)OCC2 (single isomer, unassigned)", "DATA_VALUE": 0.12}
{"MOLECULE": "COc1ccc([C@@H]2CNC(=O)[C@H]2NC(=O)Nc2ccc(F)c(F)c2)cc1 (single isomer, unassigned)", "DATA_VALUE": 0.41}
{"MOLECULE": "COc1ccc([C@@H]2CN/C(=N\\O)[C@H]2NC(=O)Nc2ccc(F)cc2)cc1 (single isomer, unassigned)", "DATA_VALUE": 0.06}

QUERY: Given COc1cc(F)c([C@@H]2CN(CC(=O)O)C(=O)[C@H]2NC(=O)Nc2ccc(F)cc2)c(F)c1 (relative stereo) , state its recorded log10(EC50).
RESULT: -0.31

QUERY: Given CNC(=O)C(C)N1C[C@@H](c2ccc(OC)cc2)[C@H](NC(=O)Nc2ccc(F)cc2)C1=O (single isomer, unassigned; isomer b) [Example 21-1] , state its recorded log10(EC50).
RESULT: -1.40

QUERY: Given CNC(=O)CN1C[C@@H](c2ccc(OC)cc2)[C@H](NC(=O)Nc2ccc(F)cc2)C1=O (relative stereo) , state its recorded log10(EC50).
RESULT: -0.96

QUERY: Given COc1ccc([C@@H]2CNC(=O)[C@H]2NC(=O)Nc2ccc(F)cc2)cc1F (single isomer, unassigned) , state its recorded log10(EC50).
RESULT: -0.05

QUERY: Given COc1cc(F)c([C@@H]2CNC(=O)[C@H]2NC(=O)Nc2cccc(O)c2)c(F)c1 (relative stereo) , state its recorded log10(EC50).
RESULT: -0.80

QUERY: Given CCCN1C[C@@H](c2c(F)cc(OC)cc2F)[C@H](NC(=O)Nc2ccc(F)cc2)C1=O (relative stereo) , state its recorded log10(EC50).
RESULT: -1.22

QUERY: Given N#Cc1ccc(NC(=O)N[C@@H]2C(=O)NC[C@H]2c2cc3c(cc2F)OCC3)cc1 (relative stereo) , state its recorded log10(EC50).
RESULT: 0.28

QUERY: Given CCOC(=O)CN1C[C@@H](c2c(F)cc(OC)cc2F)[C@H](NC(=O)Nc2ccc(F)cc2)C1=O (single isomer, unassigned) , state its recorded log10(EC50).
RESULT: -0.82

QUERY: Given COc1cc(F)c([C@@H]2CN(C)C(=O)[C@H]2NC(=O)Nc2cc3ccccc3s2)c(F)c1 (relative stereo) , state its recorded log10(EC50).
RESULT: 0.20
